# TARGET: B-RAF(V600E) (Homo sapiens, UniProt P15056, V600E)
# Sequence (P15056 whole entry V600E): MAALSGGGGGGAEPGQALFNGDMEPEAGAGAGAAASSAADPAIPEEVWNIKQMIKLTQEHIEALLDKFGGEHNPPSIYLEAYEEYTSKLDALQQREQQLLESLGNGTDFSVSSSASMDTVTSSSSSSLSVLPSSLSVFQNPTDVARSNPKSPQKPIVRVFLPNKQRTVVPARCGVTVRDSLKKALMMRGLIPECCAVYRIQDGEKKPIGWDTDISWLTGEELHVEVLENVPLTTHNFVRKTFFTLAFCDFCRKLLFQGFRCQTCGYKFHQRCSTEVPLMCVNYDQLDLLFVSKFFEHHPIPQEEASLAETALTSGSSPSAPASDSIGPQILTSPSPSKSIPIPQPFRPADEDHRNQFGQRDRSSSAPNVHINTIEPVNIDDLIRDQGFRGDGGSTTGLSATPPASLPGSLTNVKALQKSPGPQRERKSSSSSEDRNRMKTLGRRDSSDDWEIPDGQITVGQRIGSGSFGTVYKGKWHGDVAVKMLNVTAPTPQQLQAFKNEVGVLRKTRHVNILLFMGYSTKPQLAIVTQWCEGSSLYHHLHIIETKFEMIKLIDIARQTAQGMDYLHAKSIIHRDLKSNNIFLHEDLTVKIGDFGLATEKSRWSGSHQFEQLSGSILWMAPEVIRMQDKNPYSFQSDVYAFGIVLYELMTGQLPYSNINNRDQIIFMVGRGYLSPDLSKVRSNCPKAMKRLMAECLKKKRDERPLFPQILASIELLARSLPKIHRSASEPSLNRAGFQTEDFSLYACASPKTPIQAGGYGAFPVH
# TEST_DETAILS: B-RAF
# Type: biochemical
# STUDY_CONDITIONS: ratio of kinase IC50 values
PARAMETER_MEASURED: selectivity for B-RAFV600E kinase over B-RAF wild-type kinase

COMPOUND	RESULT
Cc1ccc(C(CS(=O)(=O)c2ccccc2)=NNc2nc(C)c(N=Nc3cccc(C)c3)s2)cc1 [Compound 7b]	approximately four
Cc1ccc(C(CS(=O)(=O)c2ccccc2)=NNC2=NC(=O)C(=NNc3ccccc3)S2)cc1 [Compound 11a]	approximately four
Cc1ccc(C(CS(=O)(=O)c2ccccc2)=NNc2nc(-c3ccc(OCCCCOc4ccc(-c5csc(NN=C(CS(=O)(=O)c6ccccc6)c6ccc(C)cc6)n5)cc4)cc3)cs2)cc1 [Compound 15]	5 fold
Cc1ccc(C(CS(=O)(=O)c2ccccc2)=NN=C2N=C(c3ccc(Br)cc3)CS2)cc1 [Compound 13a]	approximately four
